- assaySummary: cytotoxicity in PAX8-dependent RMG-1 cells, dose response, cell-based, cherry-pick (AID 687029);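 also: cells exposed to compound for 96 hours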
- measurementContext: RMG-1 viability, CellTiterGlo ATP luminescence, 96 h; series mostly up to 35 µM
Measured potencies and affinities stand elsewhere. Activity calls are given as the source filed them.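 The calls were made as follows: active = signal drop whose fitted half-maximal concentration is at most twice the top valid dose, in every test run; inconclusive = mixed calls across runs, poor fit, or flat 30 to 70% inhibition; inactive = wrong direction, flat within 30%, or potency beyond limit.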
metric: activity change, negative = inhibition

[[record]]
compound = "C[C@@H]1CN([C@H](C)CO)C(=O)c2cc(NC(=O)Nc3ccccc3)ccc2O[C@@H](C)CCCCO[C@@H]1CN(C)Cc1ccc(C(F)(F)F)cc1"
recordedmeasurement = "inactive"

[[record]]
compound = "Cc1ccc(-c2ccc([C@@H]3[C@@H]4CN(Cc5ccccc5F)C[C@H]3N4)cc2)cc1"
recordedmeasurement = "inactive"

[[record]]
compound = "C[C@@H]1CN([C@H](C)CO)C(=O)c2cc(NC(=O)Nc3ccc(F)cc3)ccc2O[C@@H](C)CCCCO[C@H]1CN(C)C(=O)C1CCCCC1"
recordedmeasurement = "inactive"

[[record]]
compound = "O=C(Nc1ccc(F)cc1)N1CCCCN2[C@@H](CO)[C@@H](c3ccc(-c4cccc(F)c4)cc3)[C@@H]2C1"
recordedmeasurement = "inactive"

[[record]]
compound = "Cc1ccc(NC(=O)NC(=O)COc2ccc(Cl)cc2Cl)c(C)c1"
recordedmeasurement = "inactive"


Which value of activity change, negative = inhibition has been reported for `C[C@@H]1CN([C@@H](C)CO)C(=O)c2cc(NS(=O)(=O)c3ccc(Cl)cc3)ccc2O[C@@H](C)CCCCO[C@H]1CN(C)Cc1ccc(C(F)(F)F)cc1` in the records?
inactive

Query (compound): `Cc1cc(OCCCn2cnc3ccccc3c2=O)ccc1[N+](=O)[O-]` ; field requested: activity change, negative = inhibition
inactive

What measured activity change, negative = inhibition goes with `Cc1nc(-c2ccc(NC(=O)c3ccco3)cc2)cs1` ?
inactive

Would you kindly share the measured activity change, negative = inhibition for `C[C@@H]1CCCCO[C@@H](CN(C)Cc2ccc(Cl)c(Cl)c2)[C@H](C)CN([C@H](C)CO)C(=O)c2cc(NC(=O)Nc3ccc(F)cc3)ccc2O1` ?
inactive

Can you look up the measured activity change, negative = inhibition of O=C(Nc1cccc(F)c1)N1C[C@@H]2N[C@H](C1)C2c1ccc(-c2ccc(F)cc2)cc1 (some centres not stated) for me?
inactive

Which activity change, negative = inhibition value belongs to CCCCC(=O)NC(c1ccccc1)c1ccc2cccnc2c1O (configuration not stated) ?
inactive

Name the recorded activity change, negative = inhibition for O=C(NC1CCCCC1)N1C[C@@H]2N[C@H](C1)C2c1ccc(-c2ccc(F)cc2)cc1 (some centres not stated) .
inactive

Report activity change, negative = inhibition for `C[C@@H]1CN([C@H](C)CO)C(=O)Cc2cc(NC(=O)Nc3ccc(F)cc3)ccc2O[C@@H]1CN(C)Cc1ccc(Cl)c(Cl)c1` please.
inactive

Reported activity change, negative = inhibition for `O=C(Nc1ccccc1)N1CCCCN2[C@@H](CO)[C@@H](c3ccc(C#Cc4ccccc4)cc3)[C@@H]2C1` : what is it?
inactive

Please report the recorded activity change, negative = inhibition for `Cc1ccc(S(=O)(=O)Nc2ccc3c(c2)C(=O)N([C@@H](C)CO)C[C@@H](C)[C@H](CN(C)Cc2ccc(C(F)(F)F)cc2)OCCCC[C@@H](C)O3)cc1` .
inactive

Which activity change, negative = inhibition value is on record for `C(=NNc1ccc2ccccc2n1)c1ccccn1` ?
inactive

# activity change, negative = inhibition lookup, item `CN(C)CCCN(C(=O)CCOc1ccccc1)c1nc2c(F)cccc2s1`
inactive

I am curious: what activity change, negative = inhibition value has been reported for O=C(NCCc1ccccc1)C(c1cccs1)N(C(=O)CCl)c1ccc(Cl)cc1 (configuration not stated) ?
inactive
